# target desc: T1, human monocarboxylate transporter 1 (MCT1) (human, UniProt P53985 1-500)
# T1 sequence: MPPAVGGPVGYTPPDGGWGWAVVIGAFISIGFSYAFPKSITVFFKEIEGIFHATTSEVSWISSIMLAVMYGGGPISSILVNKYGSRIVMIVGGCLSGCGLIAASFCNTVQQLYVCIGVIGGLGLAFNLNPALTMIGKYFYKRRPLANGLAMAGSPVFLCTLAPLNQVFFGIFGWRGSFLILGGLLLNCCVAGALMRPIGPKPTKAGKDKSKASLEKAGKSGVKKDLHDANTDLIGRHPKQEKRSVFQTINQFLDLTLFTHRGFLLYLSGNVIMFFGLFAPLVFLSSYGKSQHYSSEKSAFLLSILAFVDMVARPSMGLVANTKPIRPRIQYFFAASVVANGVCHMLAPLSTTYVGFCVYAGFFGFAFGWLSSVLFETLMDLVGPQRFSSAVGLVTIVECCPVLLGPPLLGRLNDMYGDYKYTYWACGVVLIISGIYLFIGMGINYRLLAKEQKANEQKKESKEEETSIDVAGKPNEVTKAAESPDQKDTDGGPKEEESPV
# assay protocol: cell-based or functional assay
measure name: IC50 of inhibition of CD4 T cell proliferation (nM)
Number in nM, nothing else.

{"columns": ["binder", "recorded measurement"],
 "data": [
  ["anti-human MCT1 antibody Ab7 (antibody, human IgG1, kappa, V domains shown, IgG1EN backbone) VH: QVQLVQSGAEVKKPGASVKVSCTVSGRSRTNYHLQWVRQAPGQGLEWMGFIRSSGNTEYNSEFKSRVTMTRDTSTSTVYMELSSLRSEDTAVYYCARNRWYHGTYYSPGYYVMDAWGQGTLVTVSS VL: EIVLTQSPGTLSLSPGERATLSCKGSQNIENYLAWYQQKPGQAPRLLIYNRHNLQTGIPDRFSGSGSGTDFTLTISRLEPEDFAVYYCYQYSDGYTFGGGTKVEIKR", 2],
  ["anti-human MCT1 antibody Ab12 (antibody, human IgG1, kappa, V domains shown, IgG1EN backbone) VH: QVQLVQSGAEVKKPGASVKVSCTVSGRSLTNYHLVWVRQAPGQGLEWMGFIRSSGNTEYNSEFKSRVTMTRDTSTSTVYMELSSLRSEDTAVYYCARNRWYHGTYYSPGYYVMDAWGQGTLVTVSS VL: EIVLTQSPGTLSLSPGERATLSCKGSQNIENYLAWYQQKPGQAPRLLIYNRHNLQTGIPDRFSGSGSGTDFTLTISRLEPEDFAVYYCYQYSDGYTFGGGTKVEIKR", 4],
  ["anti-human MCT1 antibody Ab14 (antibody, human IgG1, kappa, V domains shown, IgG1EN backbone) VH: QVQLVQSGAEVKKPGASVKVSCTVSGRSLTNYHLQWVRQAPGQGLEWMGFIRSSGNTEYNSEFKSRVTMTRDTSTSTVYMELSSLRSEDTAVYYCARNRWYHGTYYSPGYYVMDPWGQGTLVTVSS VL: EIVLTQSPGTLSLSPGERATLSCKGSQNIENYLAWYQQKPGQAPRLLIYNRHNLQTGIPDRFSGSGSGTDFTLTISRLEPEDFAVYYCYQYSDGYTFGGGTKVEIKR", 5],
  ["anti-human MCT1 antibody Ab17 (antibody, human IgG1, kappa, V domains shown, IgG1EN backbone) VH: QVQLVQSGAEVKKPGASVKVSCTVSGRSLTNIHLQWVRQAPGQGLEWMGFIRSSGNTEYNSEFKSRVTMTRDTSTSTVYMELSSLRSEDTAVYYCARNRWYHGTYYSPGYYVMDAWGQGTLVTVSS VL: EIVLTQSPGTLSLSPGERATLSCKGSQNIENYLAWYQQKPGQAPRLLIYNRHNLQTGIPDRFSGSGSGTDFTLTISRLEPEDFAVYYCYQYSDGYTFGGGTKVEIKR", 5]
]}

Now, please, on to the next binder.
Exercise: Query IC50 of inhibition of CD4 T cell proliferation for anti-human MCT1 antibody Ab8 (antibody, human IgG1, kappa, V domains shown, IgG1EN backbone) VH: QVQLVQSGAEVKKPGASVKVSCTVSGRSLTNYHLQWVRQAPGQGLEWMGFIRSSGNTIYNSEFKSRVTMTRDTSTSTVYMELSSLRSEDTAVYYCARNRWYHGTYYSPGYYVMDAWGQGTLVTVSS VL: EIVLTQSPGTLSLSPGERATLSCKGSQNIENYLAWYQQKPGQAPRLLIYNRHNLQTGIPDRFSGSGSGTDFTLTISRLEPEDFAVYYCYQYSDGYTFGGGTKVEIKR
Solution: 3
